molecular target: JAK1 (Homo sapiens); construct: The kinase domain of humanJAK1 was amplified from U937mRNA; His tag (from pFastBac HTb vector; nickel chelate purification) (N); made in house; host or cells: baculovirus; virus made in Sf9, large-scale expression in High Five insect cells; experiment: JAK1 kinase domain capture-based ELISA kinase assay; type: biochemical; details: Table 6; inhibit 50% of activity at 50 μM
Sequence (P23458 875-1153 limits assumed): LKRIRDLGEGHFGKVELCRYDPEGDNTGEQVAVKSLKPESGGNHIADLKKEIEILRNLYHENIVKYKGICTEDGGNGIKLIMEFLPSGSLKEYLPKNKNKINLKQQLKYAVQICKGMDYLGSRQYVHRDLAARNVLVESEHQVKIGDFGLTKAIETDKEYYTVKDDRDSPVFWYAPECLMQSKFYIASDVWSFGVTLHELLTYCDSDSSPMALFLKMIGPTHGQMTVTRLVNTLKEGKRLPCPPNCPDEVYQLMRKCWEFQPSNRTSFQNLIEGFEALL
pIC50: −log10 of the molar value.
REPORTED_ENDPOINT: pIC50

# COMPOUND, REPORTED_ENDPOINT, OBSERVED
rows = [
    ("c1ccc(Nc2nc(-c3cccnc3)cn3ccnc23)cc1", "pIC50", "> 4.30"),
    ("CCCC/C=C/c1cn2ccnc2c(NC2CCC(O)CC2)n1 (stereo not shown)", "pIC50", "< 4.30"),
    ("O=C(O)CCc1ccc(-c2cn3ccnc3c(NCc3ccco3)n2)cc1", "pIC50", "< 4.30"),
]

Now look at this entry.
Input: Could you share which pIC50 value was measured for c1ccc(Nc2nc(-c3ccco3)cn3ccnc23)cc1 ?
Output: < 4.30

* * *

molecular target: JAK3 (Homo sapiens, UniProt P52333); construct: The kinase domain of humanJAK3 was amplified from U937mRNA; His tag (from pFastBac HTb vector; nickel chelate purification) (N); made in house; host or cells: baculovirus; virus made in Sf9, large-scale expression in High Five insect cells; test: JAK3 kinase domain capture-based ELISA kinase assay; type: biochemical; settings: Table 3; inhibit 50% of activity at 50 μM
Sequence (P52333 822-1111 limits assumed): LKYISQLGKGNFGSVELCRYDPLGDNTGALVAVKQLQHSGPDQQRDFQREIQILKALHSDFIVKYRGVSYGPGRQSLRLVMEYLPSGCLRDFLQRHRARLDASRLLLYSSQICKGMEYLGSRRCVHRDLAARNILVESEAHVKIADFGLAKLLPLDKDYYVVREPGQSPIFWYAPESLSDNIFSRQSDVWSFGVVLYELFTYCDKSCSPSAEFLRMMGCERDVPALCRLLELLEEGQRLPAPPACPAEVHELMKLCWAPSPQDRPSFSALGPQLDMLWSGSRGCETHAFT
pIC50: −log10 of the molar value.
Recorded pIC50, one value per entry.

Worked examples follow.
# COMPOUND, pIC50
measured = [
    ("CC(=O)Nc1cccc(-c2cncc(N[C@@H](C)c3ccccc3)n2)c1 [CYT20508]", "> 4.30"),
    ("Oc1ccc(-c2cncc(N3CCN(Cc4ccccn4)CC3)n2)cc1 [CYT32602]", "> 4.30"),
    ("Fc1ccc(-c2cncc(N3CCN(CCN4CCCC4)CC3)n2)cc1Cl [CY734702]", "> 4.30"),
    ("COc1cc(-c2cncc(NCc3ccccc3)n2)cc(OC)c1OC [CYT25209]", "> 4.30"),
    ("c1cncc(Nc2cccc(-c3ccncc3)n2)c1 [CYT14804]", "> 4.30"),
    ("COc1cncc(-c2cncc(NCc3cccs3)n2)c1 [CYT20303]", "> 4.30"),
    ("COc1cncc(-c2cncc(NCc3ccccc3)n2)c1 [CYT24605]", "> 4.30"),
    ("c1ccc(CNc2cncc(-c3cccnc3)n2)cc1 [CYT24803]", "> 4.30"),
]

Input: JAK3 (Homo sapiens, UniProt P52333) / pIC50 / COc1cccc(-c2cccc(N3CCN(C)CC3)n2)c1 [CYT13809] : value?
Output: > 4.30

Input: // query: COc1cncc(-c2cncc(NCc3ccco3)n2)c1 [CYT20406]
Output: > 4.30

Input: // query: OCc1ccccc1-c1cncc(NCc2ccccc2)n1 [CYT25210]
Output: > 4.30

Input: // query: OCc1cccc(-c2cncc(NCc3ccccc3)n2)c1 [CYT20506]
Output: > 4.30

Input: // query: C[C@@H](Nc1cncc(-c2cccc(N)c2)n1)c1ccccc1 [CYT31106]
Output: > 4.30

Input: // query: COc1cncc(-c2cncc(N[C@H](CO)C(C)C)n2)c1 [CYT21507]
Output: > 4.30

Input: // query: CC(=O)Nc1cccc(-c2cncc(NCc3cccc(Cl)c3)n2)c1 [CYT20310]
Output: > 4.30

Input: // query: COc1cc(-c2cncc(NCCc3ccncc3)n2)cc(OC)c1OC [CYT21404]
Output: > 4.30

Input: // query: CC(=O)Nc1cccc(-c2cncc(N[C@H](C)c3ccccc3)n2)c1 [CYT32102]
Output: > 4.30
